Assay: Quantitative High-Throughput drug screen in 47 multiple myeloma cell lines against the NCATS MIPE library collection: KMS27_JCRB cell viability assay (AID 1918970); note: nearly all actives have a fitted effect of over 30% in size
Settings: KMS27 myeloma cells, CellTiter-Glo ATP viability, 48 h
Records with an inconclusive call do not appear. The source made the active and inactive calls. Calls come from the whole dose curve; as a rule, active = well fitted cell-killing curve with a large enough effect; inconclusive = small, poorly fitted or top-dose-only effect, or effect the other way; inactive = no such curve, though single readings can be large or run the other way. Starred links: 1 amine or outer side, 2 acyl side, 3 side chain; linkers in the order of their positions; H or OH if unused. Positions of bridges follow the written chain, without caps; N, C: chain ends. Non-standard residues stand in square brackets, D forms with d. Residues, ends and D or L forms follow the SMILES beside them. Chains are numbered I, II in the order given. Actinocin(9to1) = Cc1c2oc3c(C)ccc(C(=O)[*:1])c3nc-2c(C(=O)[*:2])c(N)c1=O; NMeV = CN[CH](C(=O)O)C(C)C; Sar = CNCC(=O)O
Classes to choose from: active, inactive

Answered examples (5):
>>> label_class("O=C1NC(=O)[C@@H](c2cn3c4c(cccc24)CCC3)[C@H]1c1c[nH]c2ccccc12")
"active"
>>> label_class("O=C(O)C[C@H](O)C[C@H](O)C=Cc1c(C2CC2)nc2ccccc2c1-c1ccc(F)cc1")
"active"
>>> label_class("Cc1noc(-c2ccc(CSCCC(=O)O)cc2)c1NC(=O)OC(C)c1ccccc1Cl (configuration not stated)")
"inactive"
>>> label_class("N#CC(=C(O)c1ccc(Cl)cc1Cl)c1nc2cc(Cl)ccc2c(=O)[nH]1")
"inactive"
>>> label_class("Cc1c2oc3c(C)ccc(C(=O)NC4C(=O)NC(C(C)C)C(=O)N5CCCC5C(=O)N(C)CC(=O)N(C)C(C(C)C)C(=O)OC4C)c3nc-2c(C(=O)NC2C(=O)NC(C(C)C)C(=O)N3CCCC3C(=O)N(C)CC(=O)N(C)C(C(C)C)C(=O)OC2C)c(N)c1=O (configuration not stated) (I: TVP[Sar][NMeV] / II: TVP[Sar][NMeV]; ester I:1-I:C, II:1-II:C; linker I:N-II:N via Actinocin(9to1); configuration not given here)")
"inactive"

Record lookup: outcome of this test for C=C(C)[C@@H]1CC[C@]2(C(=O)O)CC[C@]3(C)[C@H](CC[C@@H]4[C@@]5(C)CC[C@H](O)C(C)(C)[C@@H]5CC[C@]43C)[C@@H]12 ?
inactive

Record lookup: outcome of this test for CCOc1cc2ncc(C#N)c(Nc3ccc(OCc4ccccn4)c(Cl)c3)c2cc1NC(=O)C=CCN(C)C ?
active
